Measured values drawn from the supplement of paper PMC9170038 for this set.

We begin with a simple list: items and their reported apparent KD of MS2 coat protein.
- Test system: MS2 coat protein
- method-summary: apparent KD of MS2 coat protein; higher = weaker reporter binding
- condition-description: Eterna round: R107; input ligand: arginine 13.2 mM
observation-type: apparent KD of MS2 coat protein (nM)

>  <seq-text>
GCCGGGCCCUCGGCCGCCACUGAGAGAGUCGUGUGAACAUGAGGAUCACCCAUGUAAUAUAUAUACAGGACCGGGAGGGCCCGGC [4.W]

>  <observation-type>
apparent KD of MS2 coat protein

>  <readout-units>
nM

>  <observed-value>
11.9

$$$$
>  <seq-text>
CACAUGAGGAUCACCCAUGUCUGAACUGAAGGAGCGCUAAAUAAGGCAGGUAGGUCGCGGAAUCGUGUGUGCAUAUGCACACGCG [9.U]

>  <observation-type>
apparent KD of MS2 coat protein

>  <readout-units>
nM

>  <observed-value>
17.8

$$$$
>  <seq-text>
UUUUAGCAUCGAAGGAGCGCUGGUAGGUGACACAUGAGGAUCACCCAUGUGCUCCUUGCCGAGCAGGUAGGUCGCGAUGCUAUUU [SSAB NP+V+V2 #8]

>  <observation-type>
apparent KD of MS2 coat protein

>  <readout-units>
nM

>  <observed-value>
31.4

$$$$
>  <seq-text>
UCGGAGAAGUCGGCCGCCACUGAACUCUUGUUCUACAUGAGGAUCACCCAUGUUCCUUUGUUUAACAGGACCGGGACUUAUACGA [JR_SSTryptoB_Sub009]

>  <observation-type>
apparent KD of MS2 coat protein

>  <readout-units>
nM

>  <observed-value>
108

$$$$
>  <seq-text>
CGACGAUACCUGGAUACCAGCGACAUGAGGAUCACCCAUGUAUGUGGAUCAGCCAUGAUAUGCCCUUGGCAGCCACCAAAGUCGG [IIIMULLIN]

>  <observation-type>
apparent KD of MS2 coat protein

>  <readout-units>
nM

>  <observed-value>
17

$$$$
>  <seq-text>
GGUAUGUAUUCGGAAACGAAUGCAUACCAACGAGGACCGGUACGGCCGCCACUCGCCGUCCUCAAACAUGAGGAUCACCCAUGUA [Ex Tryptophan A 7]

>  <observation-type>
apparent KD of MS2 coat protein

>  <readout-units>
nM

>  <observed-value>
19.5

$$$$

* * *

- System: MS2 coat protein
- method-summary: apparent KD of MS2 coat protein; designed switch direction (-1 OFF switch, 1 ON switch): -1; higher = weaker reporter binding
- condition-description: Eterna round: R95; input ligand: FMN 200 uM
We use 40 nM as the dividing line for apparent KD of MS2 coat protein: on or above the line is condition met, below is condition not met.

>  <seq-text>
GUAGAGACAGGAUAUACAUGAGGAUCACCCAUGUGAGGAGGAAAAGAGAGGAGAAAGAGUAGAAGGGUCGAAAG [JR_Exclu3_Sub030] (puzzle: Exclusion 3)

>  <assay-target>
MS2 coat protein

>  <assigned-class>
condition met

$$$$
>  <seq-text>
AUAAAGUCAGGAUAUCGAAGUGAGUGGUGGAGGGUAAGGUACGAGAAGGGACAUGAGGAUCACCCAUGUAGGAA [JR_Exclusion4)Sub005] (puzzle: Exclusion 4)

>  <assay-target>
MS2 coat protein

>  <assigned-class>
condition not met

$$$$
>  <seq-text>
CUGGUCCGAGGAUAUAUUAAGUGAAACAUGAGGAUCACCCAUGUUAUUUAAUGGAAGUAAAUAGAAGGCGGACUAG [Mat - Exclusion 5 - JL mod - D54] (puzzle: Exclusion 5)

>  <assay-target>
MS2 coat protein

>  <assigned-class>
condition not met

$$$$
>  <seq-text>
GAUUAUGCGAGCUUUAGGGACAUGAGGAUCACCCAUGUUCGUCUUAUUAGUCUGAGUGCACUGACAUACCUAAAUCU [JMF 85] (puzzle: Sensor v3, turn-off variant 1)

>  <assay-target>
MS2 coat protein

>  <assigned-class>
condition not met

$$$$
>  <seq-text>
CCGGAUAUGCAGGAUAUCGUAUCGGAGACGAUACGAGAAGGGUAUACAUGAGGAUCACCCAUGUGCCUUACCGG [Mat - Exclusion 6 - Eli Mod - D82] (puzzle: Exclusion 6)

>  <assay-target>
MS2 coat protein

>  <assigned-class>
condition not met

$$$$
>  <seq-text>
AAAAAACAAGGAUAUACAAAAAAAAAAUGUGUUAAAUUUUCACAUGAGGAUCACCCAUGUAGAAGGUGUAAAAA [JR_Exclusion2_Sub005] (puzzle: Exclusion 2)

>  <assay-target>
MS2 coat protein

>  <assigned-class>
condition met

$$$$
>  <seq-text>
GAGUGACAUGAGGAUCACCCAUGUAAGGAUAUACGGUUGGUAGAGAGAGGGCGAAAGGGUAGAAGGUACGAAGG [JR_Exclu1_Sub054] (puzzle: Exclusion 1)

>  <assay-target>
MS2 coat protein

>  <assigned-class>
condition met

$$$$
>  <seq-text>
ACCUAACAUGAGGAUCACCCAUGUCAGGAUAUCCGGCCUAUGGAAACAUAGGAAGAACGGAGAAGGGACAGAGG [ChP 04-04-2015 #9] (puzzle: Exclusion 1)

>  <assay-target>
MS2 coat protein

>  <assigned-class>
condition met

$$$$
>  <seq-text>
GGCCCUAAGGUCAGAUUCACAAGCUUUUUGCUCGUUUUAACAUGAGGAUCACCCAUGUCUAGUGGAUUUGAUCCUUA [Sensor v3, turn-off variant 2 (MOD of Indiso v.7)] (puzzle: Sensor v3, turn-off variant 2)

>  <assay-target>
MS2 coat protein

>  <assigned-class>
condition not met

$$$$
>  <seq-text>
CCUUUGUCAGGAUAUCAGAACGCGCUCGUAGGGAGCGCAAAUGAGAAGGGACAUGAGGAUCACCCAUGUAAAGA [Gequleon] (puzzle: Exclusion 4)

>  <assay-target>
MS2 coat protein

>  <assigned-class>
condition met

$$$$

* * *

- Test system: MS2 coat protein
- method-summary: apparent KD of MS2 coat protein; designed switch direction (-1 OFF switch, 1 ON switch): -1; higher = weaker reporter binding
- condition-description: input ligand: FMN 200 uM

>  <seq-text>
GUCGUGCGGCAGUGCUGUACGAGUACAUGAGGAUCACCCAUGUAGGAUAUGGUUCGUUUUGCGUGCUAGAAGGGCGUGCGUUUU [Excl-NG3-LRO18] (Eterna round: R96, puzzle: Exclusion NG 3)

>  <apparent KD of MS2 coat protein (nM)>
18

$$$$
>  <seq-text>
AAAGUCCUAGGAGGAUAUCACCUGCCUAGCACAUGAGAAGGCCUAGGAGACAUGAGGAUCACCCAUGUGUCCUUAGUCGAAAAU [Ensobedi] (Eterna round: R96, puzzle: Exclusion NG 1)

>  <apparent KD of MS2 coat protein (nM)>
19.5

$$$$
>  <seq-text>
AUAUACGGAGGAUAUACUUGAGGAUCACCCAAGUGGAGUCCCGUUUGGGCGGUAAAUAGUAGAAGGCCGUCCCA [jl-ex3-4.44 ViennaUCT mod] (Eterna round: R97, puzzle: Exclusion 3)

>  <apparent KD of MS2 coat protein (nM)>
16.8

$$$$
>  <seq-text>
CGAUGAGGAGUGAGGAUAUCGUGUUCGAAAGAACGUGAGAAGGCACAUGAGGAUCACCCAUGUGAUACUUGUCG [Omei Ex4B A15] (Eterna round: R97, puzzle: Brourd's mod of Exclusion 4)

>  <apparent KD of MS2 coat protein (nM)>
60.9

$$$$
>  <seq-text>
GCGGACUAGAACGUGAGUUCUGAGACAUGAGGAUCACCCAUGUAGGAUAUCGAUUCGAAACGAAUCGAGAAGGGCAUAGUCCGC [JL denovo 11] (Eterna round: R96, puzzle: Exclusion NG 3)

>  <apparent KD of MS2 coat protein (nM)>
15.2

$$$$

* * *

We begin with a simple list: items and their reported apparent KD of MS2 coat protein.
- Tested on: MS2 coat protein
- method-summary: apparent KD of MS2 coat protein; designed switch direction (-1 OFF switch, 1 ON switch): -1; higher = weaker reporter binding
- condition-description: Eterna round: R95; input ligand: FMN 200 uM
observation-type: apparent KD of MS2 coat protein (µM)

>  <seq-text>
AGUACUAACACGAAAGUGUUAGUACAAUAAGCUUGUGUUACAUGAGGAUCACCCAUGUCCUCAUAAGCUCGUCUUAG [Mat - Sensor v3 - Turn-off var 2 - D50] (puzzle: Sensor v3, turn-off variant 2)

>  <observed-value>
0.0459

$$$$
>  <seq-text>
AGUAGGUCUACCUUGGUGGAUCUGCAUAAAGCAAGUGAUACAUGAGGAUCACCCAUGUCCUCAUUUGCUCGUCUUAU [JL turnoff v2 99.21] (puzzle: Sensor v3, turn-off variant 2)

>  <observed-value>
0.014

$$$$
>  <seq-text>
AAAAGAAGUGUUAGGAUAUGUGUAAGUAGAAAGACACAGAAGGAACAUGAGGAUCACCCAUGUGGCCAAAGAAC [Vesotila] (puzzle: Brourd's mod of Exclusion 4)

>  <observed-value>
0.0387

$$$$
